target: Human ENaC δ, β and γ subunit (Homo sapiens, UniProt P51168+P51170+P51172); construct: expressed in transfected cells; host or cells: Xenopus laevis (African clawed frog) oocytes injected with cRNA; test: Measurement of ENaC activation potency (two electrode voltage clamp current in ENaC-expressing oocyte); type: cell-based; details: lowest concentration increasing the current value by not less than 10% vs before addition
MEASURED PROPERTY: MED value (minimum effective dose) (µM)
All answers are understood in µM, so give the number only.

# example entries with known answers
- SMILES RECORD: "O=C(N[C@H](Cc1c[nH]c2ccccc12)C(=O)O)c1c(O)cccc1O"
  READOUT UNIT: "µM"
  MED value (minimum effective dose): 0.6
- SMILES RECORD: "O=C(N[C@@H](Cc1c[nH]c2ccccc12)C(=O)O)c1c(O)cccc1O"
  READOUT UNIT: "µM"
  MED value (minimum effective dose): 0.6
- SMILES RECORD: "N[C@@H](Cc1c[nH]c2ccccc12)C(=O)Nc1ccccc1S(=O)(=O)O"
  READOUT UNIT: "µM"
  MED value (minimum effective dose): 0.3
- SMILES RECORD: "COc1cccc(OC)c1C(=O)NCCc1c[nH]c2ccc(O)cc12"
  READOUT UNIT: "µM"
  MED value (minimum effective dose): 3
- SMILES RECORD: "COC(=O)[C@H](Cc1ccccc1)NC(=O)c1cc(Br)ccc1O"
  READOUT UNIT: "µM"
  MED value (minimum effective dose): 1

Now look at this one.
Recorded result, "O=C(NCCc1c[nH]c2ccccc12)c1cc(Br)ccc1O" , MED value (minimum effective dose): 1

* * *

target: Human ENaC δ, β and γ subunit (Homo sapiens, UniProt P51168+P51170+P51172); construct: expressed in transfected cells; host or cells: Xenopus laevis (African clawed frog) oocytes injected with cRNA; assay: Measurement of ENaC activation potency (two electrode voltage clamp current in ENaC-expressing oocyte); assay type: cell-based; settings: lowest concentration increasing the current value by not less than 10% vs before addition
MEASURED PROPERTY: MED value (minimum effective dose) (µM)
All answers are understood in µM, so give the number only.

Recorded result, "N[C@@H](Cc1ccccc1)C(=O)Nc1c(O)cccc1O" , MED value (minimum effective dose): 3

Recorded result, "O=C(CCc1ccc2c(c1)OCO2)N[C@@H](Cc1c[nH]c2ccccc12)C(=O)O" , MED value (minimum effective dose): 3

Recorded result, O=C(CCc1ccccc1)NC(Cc1c[nH]c2ccc(F)cc12)C(=O)O (centres unmarked) , MED value (minimum effective dose): 3

* * *

Target: Human ENaC δ, β and γ subunit (Homo sapiens, UniProt P51168+P51170+P51172)
Construct: expressed in transfected cells; host or cells: Xenopus laevis (African clawed frog) oocytes injected with cRNA
Sequence (P51172 1-638 isoform P51172-1): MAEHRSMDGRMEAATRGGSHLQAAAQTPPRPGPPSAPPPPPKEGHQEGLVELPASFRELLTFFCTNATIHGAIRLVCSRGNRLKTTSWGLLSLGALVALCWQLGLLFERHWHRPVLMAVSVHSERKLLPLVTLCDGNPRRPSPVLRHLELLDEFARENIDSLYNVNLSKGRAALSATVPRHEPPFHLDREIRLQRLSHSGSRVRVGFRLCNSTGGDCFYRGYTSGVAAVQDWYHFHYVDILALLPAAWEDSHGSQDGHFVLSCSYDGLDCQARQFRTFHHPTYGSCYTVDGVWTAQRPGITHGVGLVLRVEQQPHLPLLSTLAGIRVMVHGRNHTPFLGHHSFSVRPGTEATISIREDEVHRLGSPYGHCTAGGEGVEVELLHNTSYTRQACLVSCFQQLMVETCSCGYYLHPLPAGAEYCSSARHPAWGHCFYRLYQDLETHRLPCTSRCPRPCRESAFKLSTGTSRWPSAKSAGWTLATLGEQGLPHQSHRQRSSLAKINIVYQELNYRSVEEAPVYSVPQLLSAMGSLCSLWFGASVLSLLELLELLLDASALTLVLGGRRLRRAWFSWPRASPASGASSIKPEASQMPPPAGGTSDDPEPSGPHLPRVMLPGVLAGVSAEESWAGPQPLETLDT
Sequence (P51168 1-640): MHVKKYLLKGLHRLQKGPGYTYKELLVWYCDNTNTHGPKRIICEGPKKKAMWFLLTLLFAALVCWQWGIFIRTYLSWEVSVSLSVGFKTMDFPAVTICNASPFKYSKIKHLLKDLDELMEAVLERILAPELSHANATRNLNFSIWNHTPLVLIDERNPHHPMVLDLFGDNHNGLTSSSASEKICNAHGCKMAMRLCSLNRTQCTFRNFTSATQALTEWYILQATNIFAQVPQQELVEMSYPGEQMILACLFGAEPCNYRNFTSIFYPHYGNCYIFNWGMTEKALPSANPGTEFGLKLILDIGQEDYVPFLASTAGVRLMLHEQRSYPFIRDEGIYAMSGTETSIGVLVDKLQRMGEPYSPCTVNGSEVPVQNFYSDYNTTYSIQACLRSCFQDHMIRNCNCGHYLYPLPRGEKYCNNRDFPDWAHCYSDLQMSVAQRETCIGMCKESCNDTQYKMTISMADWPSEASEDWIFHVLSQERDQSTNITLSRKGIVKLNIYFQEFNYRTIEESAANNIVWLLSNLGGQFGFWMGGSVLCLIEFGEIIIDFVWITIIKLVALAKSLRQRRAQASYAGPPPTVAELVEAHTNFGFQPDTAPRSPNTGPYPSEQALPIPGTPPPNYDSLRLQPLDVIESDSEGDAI
Sequence (P51170 1-649): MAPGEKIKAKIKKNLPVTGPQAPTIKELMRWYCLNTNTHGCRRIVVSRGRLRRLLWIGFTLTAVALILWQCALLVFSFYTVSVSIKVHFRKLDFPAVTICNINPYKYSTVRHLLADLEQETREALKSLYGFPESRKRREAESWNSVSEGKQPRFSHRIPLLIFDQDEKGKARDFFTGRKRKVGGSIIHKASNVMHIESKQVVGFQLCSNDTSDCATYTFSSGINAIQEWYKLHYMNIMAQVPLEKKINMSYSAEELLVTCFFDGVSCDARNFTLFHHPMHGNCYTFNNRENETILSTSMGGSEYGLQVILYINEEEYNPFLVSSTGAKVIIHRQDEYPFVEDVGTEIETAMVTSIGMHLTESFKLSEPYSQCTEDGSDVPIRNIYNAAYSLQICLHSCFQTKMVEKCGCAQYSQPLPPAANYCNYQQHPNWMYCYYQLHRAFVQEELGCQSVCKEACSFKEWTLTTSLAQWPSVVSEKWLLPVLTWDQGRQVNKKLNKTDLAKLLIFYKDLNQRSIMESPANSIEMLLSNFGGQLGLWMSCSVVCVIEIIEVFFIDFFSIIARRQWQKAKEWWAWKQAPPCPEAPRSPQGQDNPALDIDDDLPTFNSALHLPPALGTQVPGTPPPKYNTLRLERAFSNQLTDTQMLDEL
Assay: Measurement of ENaC activation potency (two electrode voltage clamp current in ENaC-expressing oocyte)
Format: cell-based
Conditions: lowest concentration increasing the current value by not less than 10% vs before addition
Protocol: ENaC activation current value, namely, the inward current in ENaC-expressing oocyte was measured as follows. According to the method described in Motonao Nakamura, Takao Shimizu: Experiment of African clawed frog oocyte, Experimental Medicine Vol. 11, No. 3, 224-232 (1993), oocyte was collected from African clawed frog, […], and the current value was measured by a Two Electrode Voltage Clamp technique. […]
Recorded MED value (minimum effective dose) by entry
All answers are understood in µM, so give the number only.

- COMPOUND: "N[C@@H](CCc1ccccc1)C(=O)Nc1ccccc1S(=O)(=O)O"
  MED value (minimum effective dose) / µM: 1
- COMPOUND: "COC(=O)[C@H](Cc1ccccc1)NC(=O)c1c(O)cc(C)cc1O"
  MED value (minimum effective dose) / µM: 10
- COMPOUND: "CCOC(=O)[C@H](Cc1ccccc1)NC(=O)c1c(O)cc(C)cc1O"
  MED value (minimum effective dose) / µM: 10
- COMPOUND: "O=C(NC(Cc1c[nH]c2cc(F)ccc12)C(=O)O)c1c(O)cccc1O (centres unmarked)"
  MED value (minimum effective dose) / µM: 1

Recorded result, "COC(=O)[C@H](Cc1c[nH]c2ccccc12)NC(=O)c1ccc(Br)cc1O" , MED value (minimum effective dose): 3

Recorded result, "N[C@H](Cc1c[nH]c2ccccc12)C(=O)Nc1c(O)cccc1O" , MED value (minimum effective dose): 10

Recorded result, "COC(=O)[C@H](Cc1ccccc1)NC(=O)c1ccc(Br)cc1O" , MED value (minimum effective dose): 3

Recorded result, "N[C@@H](Cc1c[nH]c2ccccc12)C(=O)Nc1c(O)cccc1O" , MED value (minimum effective dose): 3

Recorded result, "COc1ccc(CCC(=O)Nc2c(O)cccc2O)cc1O" , MED value (minimum effective dose): 10
